Data provenance is patent US20220117913A1.

# System: pain induced by heat radiation in mice
# experiment summary: pain induced by heat radiation in mice (light and heat-induced pain)
# Format: in vivo
# condition info: female mice
Counter-ions that a name gives are not always drawn.
measurement label: Light and heat-induced pain ED95 Female (mg/kg)
Output spec: scalar in mg/kg, unitless text.

Some molecules with recorded Light and heat-induced pain ED95 Female:
molecule="C[C@@]12CCCCC[C@@H](Cc3ccc(O)cc31)[C@@H]2NCc1ccccc1 [Hydrochloride of compound 26]" measured_on="pain induced by heat radiation in mice" measurement_label="Light and heat-induced pain ED95 Female" unit_string=mg/kg data_value=0.043
molecule="C[C@@]12CCCCC[C@@H](Cc3ccc(O)cc31)[C@@H]2NCCc1ccccc1 [Hydrochloride of compound 25]" measured_on="pain induced by heat radiation in mice" measurement_label="Light and heat-induced pain ED95 Female" unit_string=mg/kg data_value=2.88
molecule="CCCCCN[C@H]1[C@H]2CCCCC[C@]1(C)c1cc(O)ccc1C2 [Hydrochloride of compound 22]" measured_on="pain induced by heat radiation in mice" measurement_label="Light and heat-induced pain ED95 Female" unit_string=mg/kg data_value=0.26

Kindly review the next molecule as well.
Q. Please report the recorded Light and heat-induced pain ED95 Female for CCCCN[C@H]1[C@H]2CCCCC[C@]1(C)c1cc(O)ccc1C2 [Hydrochloride of compound 21] .
A. 0.083

* * *

# Tested on: pain induced by heat radiation in mice
# experiment summary: pain induced by heat radiation in mice (light and heat-induced pain)
# Format: in vivo
# condition info: Mus musculus; female mice; read-out: Light and heat-induced pain ED50 Female
Structures can show the parent of a compound that is named as a salt.
Some compounds, each annotated with its measured ED50.
Numbers only here, please. The scale is mg/kg.

Below, each entry is followed by its recorded ED50 result.
compound="C[C@@]12CCCCC[C@@H](Cc3ccc(O)cc31)[C@@H]2NCCc1ccccc1 [Hydrochloride of compound 25]" data_value=1.15
compound="CCCCCN[C@H]1[C@H]2CCCCC[C@]1(C)c1cc(O)ccc1C2 [Hydrochloride of compound 22]" data_value=0.18
compound="CCCCN[C@H]1[C@H]2CCCCC[C@]1(C)c1cc(O)ccc1C2 [Hydrochloride of compound 21]" data_value=0.068

Next up:
Q. Sample C[C@@]12CCCCC[C@@H](Cc3ccc(O)cc31)[C@@H]2NCc1ccccc1 [Hydrochloride of compound 26] — what was its ED50?
A. 0.025

* * *

# experiment summary: pharmacokinetic investigation of intravenous administration in mice
# Assay type: in vivo
# condition info: mouse; male mice, intravenous injection, plasma
Where a name gives a salt, the structure may show the parent alone.
Label 1.0 when half-life is at or above 80 min; anything below gets 0.0.

compound="CCCCCN[C@H]1[C@H]2CCCCC[C@]1(C)c1cc(O)ccc1C2 [Hydrochloride of compound 22]" class_assignment=0.0

Q. Does half-life meet or surpass 80 min for C[C@@]12CCCCC[C@@H](Cc3ccc(O)cc31)[C@@H]2N (relative stereo) [dezocine hydrochloride, reference compound] ?
A. 0.0

Q. Proceed to CCCCN[C@H]1[C@H]2CCCCC[C@]1(C)c1cc(O)ccc1C2 [Hydrochloride of compound 21]
A. 0.0

Q. Also C[C@@]12CCCCC[C@@H](Cc3ccc(O)cc31)[C@@H]2NCCc1ccccc1 [Hydrochloride of compound 25] , if possible.
A. 1.0

* * *

In this section, each of the molecules is paired with its reported pIC50.
# measured on: UniProt P41143
# experiment summary: radioisotope ligand competitive binding assay, δ opioid receptor (DOR)
# condition info: [3H]-DADLE 0.5 nM, cell membrane of stably transfected cells; read-out: δ IC50
pIC50: −log10 of the molar value. Counter-ions that a name gives are not always drawn.

molecule="CC(C)N[C@H]1[C@H]2CCCCC[C@]1(C)c1cc(O)ccc1C2 [Hydrochloride of compound 23]" data_value="5.00 to 6.00"

Could you now look at the following molecule, please?
Q. Request - read-out pIC50 | tested on UniProt P41143 | molecule COc1ccc2c(c1)[C@@]1(C)CCCCC[C@@H](C2)[C@@H]1NCCc1ccc(Cl)c(Cl)c1 [Hydrochloride of compound 10]
A. < 5.00

* * *

# measured on: δ opioid receptor (Homo sapiens, UniProt P41143)
# experiment summary: radioisotope ligand competitive binding assay, δ opioid receptor (DOR)
Counter-ions that a name gives are not always drawn.
measurement label: IC50

Q. Find the recorded IC50 belonging to CCOc1ccc2c(c1)[C@@]1(C)CCCCC[C@@H](C2)[C@@H]1N [Hydrochloride of compound 35] and report it.
A. > 10 µM

* * *

Quick reference: IC50 of the listed items.
# measured on: μ opioid receptor (Homo sapiens)
# experiment summary: radioisotope ligand competitive binding assay, μ opioid receptor (MOR)
# condition info: [3H]DAMGO 0.5 nM, cell membrane of stably transfected cells; read-out: μ IC50
Counter-ions that a name gives are not always drawn.

molecule="CN[C@H]1[C@H]2CCCCC[C@]1(C)c1cc(O)ccc1C2 [Hydrochloride of compound 18]" data_value="10 to 100 nM"
molecule="COc1ccc2c(c1)[C@@]1(C)CCCCC[C@@H](C2)[C@@H]1N1CCCC1 [Hydrochloride of compound 12]" data_value="1000 to 10000 nM"
molecule="COc1ccc2c(c1)[C@@]1(C)CCCCC[C@@H](C2)[C@@H]1N(C)CCc1ccccc1 [Hydrochloride of compound 13]" data_value="100 to 1000 nM"

Note: attention shifts to another entry.
Q. IC50 for COc1ccc2c(c1)[C@@]1(C)CCCCC[C@@H](C2)[C@@H]1NCc1ccccc1 [Hydrochloride of compound 9] ?
A. 100 to 1000 nM

* * *

# measured on: κ opioid receptor (Homo sapiens, UniProt P41145)
# experiment summary: radioisotope ligand competitive binding assay, κ opioid receptor (KOR)
# condition info: [3H]Diprenorphine 0.3 nM, cell membrane of stably transfected cells; read-out: κ IC50
pIC50: −log10 of the molar value. Counter-ions that a name gives are not always drawn.
measurement label: pIC50

Recorded pIC50, per entry:
compound="COc1ccc2c(c1)[C@@]1(C)CCCCC[C@@H](C2)[C@@H]1NC(C)C [Hydrochloride of compound 6]" measured_on="κ opioid receptor (Homo sapiens, UniProt P41145)" data_value="5.00 to 6.00"
compound="COc1ccc2c(c1)[C@@]1(C)CCCCC[C@@H](C2)[C@@H]1N(C)CCc1ccccc1 [Hydrochloride of compound 13]" measured_on="κ opioid receptor (Homo sapiens, UniProt P41145)" data_value="< 5.00"
compound="COc1ccc2c(c1)[C@@]1(C)CCCCC[C@@H](C2)[C@@H]1NCc1ccccc1 [Hydrochloride of compound 9]" measured_on="κ opioid receptor (Homo sapiens, UniProt P41145)" data_value="6.00 to 7.00"
compound="CCCN[C@H]1[C@H]2CCCCC[C@]1(C)c1cc(OC)ccc1C2 [Hydrochloride of compound 3]" measured_on="κ opioid receptor (Homo sapiens, UniProt P41145)" data_value="6.00 to 7.00"

Q. Reported pIC50, compound CCN[C@H]1[C@H]2CCCCC[C@]1(C)c1cc(OC)ccc1C2 [Hydrochloride of compound 2] : ____
A. 5.00 to 6.00

Q. Subsequent entry: CCCN(C)[C@H]1[C@H]2CCCCC[C@]1(C)c1cc(O)ccc1C2 [Hydrochloride of compound 31]
A. 6.00 to 7.00

Q. Consider next the compound COc1ccc2c(c1)[C@@]1(C)CCCCC[C@@H](C2)[C@@H]1NCCc1ccccc1 [Hydrochloride of compound 8] in the same way.
A. < 5.00

* * *

# measured on: μ opioid receptor (Homo sapiens)
# experiment summary: radioisotope ligand competitive binding assay, μ opioid receptor (MOR)
# condition info: [3H]DAMGO 0.5 nM, cell membrane of stably transfected cells; read-out: μ IC50
Counter-ions that a name gives are not always drawn.
measurement label: IC50

compound="CCN[C@H]1[C@H]2CCCCC[C@]1(C)c1cc(OC)ccc1C2 [Hydrochloride of compound 2]" measurement_label=IC50 data_value="0.1 to 1 µM"
compound="COc1ccc2c(c1)[C@@]1(C)CCCCC[C@@H](C2)[C@@H]1N(C)Cc1ccccc1 [Hydrochloride of compound 17]" measurement_label=IC50 data_value="0.1 to 1 µM"
compound="CN(C)[C@H]1[C@H]2CCCCC[C@]1(C)c1cc(O)ccc1C2 [Hydrochloride of compound 28]" measurement_label=IC50 data_value="< 0.01 µM"

Lab note: next compound to report on.
Q. Please state recorded IC50 (tested on μ opioid receptor (Homo sapiens)) of COc1ccc2c(c1)[C@@]1(C)CCCCC[C@@H](C2)[C@@H]1NC(C)C [Hydrochloride of compound 6]
A. 1 to 10 µM

* * *

# measured on: κ opioid receptor (Homo sapiens)
# experiment summary: radioisotope ligand competitive binding assay, κ opioid receptor (KOR)
# condition info: [3H]Diprenorphine 0.3 nM, cell membrane of stably transfected cells; read-out: κ IC50
Where a name gives a salt, the structure may show the parent alone.
measurement label: IC50

compound="COc1ccc2c(c1)[C@@]1(C)CCCCC[C@@H](C2)[C@@H]1N(C)Cc1ccccc1 [Hydrochloride of compound 17]" measurement_label=IC50 data_value="> 10000 nM"
compound="C[C@@]12CCCCC[C@@H](Cc3ccc(O)cc31)[C@@H]2N1CCCC1 [Hydrochloride of compound 29]" measurement_label=IC50 data_value="1000 to 10000 nM"
compound="CN(C)[C@H]1[C@H]2CCCCC[C@]1(C)c1cc(O)ccc1C2 [Hydrochloride of compound 28]" measurement_label=IC50 data_value="100 to 1000 nM"

Q. Query the reported IC50 for κ opioid receptor (Homo sapiens); item: CCN[C@H]1[C@H]2CCCCC[C@]1(C)c1cc(O)ccc1C2 [Hydrochloride of compound 19]
A. 10 to 100 nM

Q. Same question for COc1ccc2c(c1)[C@@]1(C)CCCCC[C@@H](C2)[C@@H]1NCCc1ccc(Cl)c(Cl)c1 [Hydrochloride of compound 10] please.
A. 1000 to 10000 nM

Q. Cool, now C[C@@]12CCCCC[C@@H](Cc3ccc(O)cc31)[C@@H]2NCCc1ccc(Cl)c(Cl)c1 [Hydrochloride of compound 27]
A. 10 to 100 nM
